Parameter TGI: see the listing below.
- Tested on: NCI-H522 lung
- ASSAY_EXPLANATION: NCI tumour cell line growth inhibition, 48 h

Below: 3 compounds and their reported TGI.
[[record]]
compound = "Cc1cccc(Nc2cnc(N)nc2N)c1"
observed_measurement = "> 100 µM"

[[record]]
compound = "CC12Oc3ccc4ccccc4c3CC1Cc1c(ccc3ccccc13)O2 (configuration not stated)"
observed_measurement = "> 100 µM"

[[record]]
compound = "CC(C)(C)C1CCC2c3c([nH]c4ccccc34)C3C(=O)N(c4ccc5c(c4)C(=O)c4ccccc4C5=O)C(=O)C3C2C1 (configuration not stated)"
observed_measurement = "> 100 µM"


Recorded TGI for "OC(C/C=N/Nc1ccccc1)(C(F)(F)Cl)C(F)(F)Cl" , please?
> 10 µM

What does the record list as TGI for CC(C)c1cc(OCC(O)CO)cc(C(C)C)c1 (configuration not stated) ?
> 100 µM

Return reported TGI; argument: "CCN(CC)CCN(C(=O)c1ccc(F)cc1)c1ccccc1N"
> 10 µM

Fill blank: measured TGI of the compound "Nn1c(N=Nc2c(O)[nH]c3c(Cl)cc(Cl)cc23)n[nH]c1=S" is ____.
> 100 µM

Find the recorded TGI belonging to "COc1ccc(C(=O)Nc2ccc3oc(-c4ccccc4)nc3c2)cc1" and report it.
> 100 µM

Please look up its TGI: O=C(NS(=O)(=O)c1ccccc1)C(Cc1ccccc1)C(Cc1ccccc1)C(=O)NS(=O)(=O)c1ccccc1 (configuration not stated)
> 100 µM

// returns reported TGI for input "CCc1cc2c(oc3cc(C)ccc32)c(=O)n1C"
> 10 µM

Need TGI of CCOC(=O)/C(C#N)=C/c1ccc2c(c1)CC1(C2)Cc2cc(CC)c(C(C)O)cc2C1 (configuration not stated) , thanks.
> 100 µM

Give its TGI value. Item: CCCCCCC(/C=N/O)C(C)(O)CCC (configuration not stated)
> 100 µM

Look at this compound and give its reported TGI. "COc1ccccc1CNC(=O)[C@H](Cc1ccc(O)cn1)NC(C)=O"
> 100 µM

Reported TGI for "COc1cc2c3c(n(CCCN=[N+]=[N-])c(=O)c2cc1OC)-c1ccc(N(C)C)cc1C3=O" : what is it?
> 100 µM

Quick one: TGI of "N#CC(C#N)=Cn1c(=S)[nH]c2ccccc21" ?
> 100 µM

I have this compound here, C[C@H]1C(=O)CC[C@]2(C)CCC(C(C)(C)O)CC12O (some centres not stated) , and I need its recorded TGI.
> 100 µM

What does the data say about its TGI? Entry: "CC(=O)c1sc(=N)n(-c2c(C)cccc2C)c1C"
> 100 µM

====

- System: HCT-15 colon
- ASSAY_EXPLANATION: NCI tumour cell line growth inhibition, 48 h
ASSAY_ENDPOINT: TGI

Check out these entries, answers already filled in.
[[record]]
molecule = "O=C1OC(c2ccccc2)=N/C1=C\\c1cccc(F)c1"
observed_measurement = "> 100 µM"

[[record]]
molecule = "COC(=O)c1c(-c2ccccc2)c2sc3ccccc3n2c1N"
observed_measurement = "> 100 µM"

[[record]]
molecule = "CCC(Oc1ccc(OC)c2ccccc(=O)c12)C(=O)O (stereo not drawn)"
observed_measurement = "> 100 µM"

[[record]]
molecule = "Cc1cc(Cl)ccc1C1OC(=O)c2c1ccc1ccccc21 (stereo not drawn)"
observed_measurement = "> 100 µM"


Entry under review: "CC(=O)NNc1nc(C)c(C(=O)NNC(=O)C(=O)Nc2c(C)cccc2C(C)(C)C)s1" . Reported TGI?
> 100 µM

I have this molecule here, "CC(=O)c1cc(C)n2c1CS[C@@H]2c1ccccc1" , and I need its recorded TGI.
> 100 µM

Which TGI is listed for "O=C(NNC(=O)c1ccccc1O)c1ccc(O)cc1" ?
> 100 µM

# query: TGI of entry "COc1ccc(CCNC(=O)[C@H]2CCCC[C@@H]2CCO)cc1OC"
> 100 µM
